The measurements presented in this section are drawn from patent US9434711B2.

- target system: UniProtKB Q1A7N1
- method notes: In Vitro Canine TRPM8 Functional Assay (Ca2+ fluorescence, icilin activation)
- Type: cell-based
- measurement setup: compound at 0.2 μM; canine TRPM8, icilin activation; read-out: % Inh @ 0.2
reported endpoint: inhibition at 0.2 µM (%)

molecule: COC(=O)CCS(=O)(=O)N(CCC(F)(F)F)c1sc2ccccc2c1C [Compound 601]
inhibition at 0.2 µM (%): 100
--
molecule: CCN(c1sc2ccccc2c1Br)S(=O)(=O)c1ccccc1 [Compound 247]
inhibition at 0.2 µM (%): 99
--
molecule: Nc1ccc(S(=O)(=O)N(CCC(F)(F)F)c2sc3ccccc3c2Cl)cc1 [Compound 585]
inhibition at 0.2 µM (%): 101
--
molecule: COC(=O)c1ccc(S(=O)(=O)N(Cc2ccc(F)c(C(F)(F)F)c2)c2sc3ccccc3c2C2CC2)cc1 [Compound 674]
inhibition at 0.2 µM (%): 85.4
--
molecule: CCCCN(c1sc2ccccc2c1C(C)(C)O)S(=O)(=O)c1ccc(C(=O)OC)cc1 [Compound 516]
inhibition at 0.2 µM (%): 102
--
molecule: CCCN(c1sc2ccccc2c1Br)S(=O)(=O)c1ccc(C(=O)O)cc1 [Compound 391]
inhibition at 0.2 µM (%): 93

###

- target system: canine TRPM8 (Canis lupus familiaris, UniProt Q1A7N1)
- Sequence (Q1A7N1 1-1104): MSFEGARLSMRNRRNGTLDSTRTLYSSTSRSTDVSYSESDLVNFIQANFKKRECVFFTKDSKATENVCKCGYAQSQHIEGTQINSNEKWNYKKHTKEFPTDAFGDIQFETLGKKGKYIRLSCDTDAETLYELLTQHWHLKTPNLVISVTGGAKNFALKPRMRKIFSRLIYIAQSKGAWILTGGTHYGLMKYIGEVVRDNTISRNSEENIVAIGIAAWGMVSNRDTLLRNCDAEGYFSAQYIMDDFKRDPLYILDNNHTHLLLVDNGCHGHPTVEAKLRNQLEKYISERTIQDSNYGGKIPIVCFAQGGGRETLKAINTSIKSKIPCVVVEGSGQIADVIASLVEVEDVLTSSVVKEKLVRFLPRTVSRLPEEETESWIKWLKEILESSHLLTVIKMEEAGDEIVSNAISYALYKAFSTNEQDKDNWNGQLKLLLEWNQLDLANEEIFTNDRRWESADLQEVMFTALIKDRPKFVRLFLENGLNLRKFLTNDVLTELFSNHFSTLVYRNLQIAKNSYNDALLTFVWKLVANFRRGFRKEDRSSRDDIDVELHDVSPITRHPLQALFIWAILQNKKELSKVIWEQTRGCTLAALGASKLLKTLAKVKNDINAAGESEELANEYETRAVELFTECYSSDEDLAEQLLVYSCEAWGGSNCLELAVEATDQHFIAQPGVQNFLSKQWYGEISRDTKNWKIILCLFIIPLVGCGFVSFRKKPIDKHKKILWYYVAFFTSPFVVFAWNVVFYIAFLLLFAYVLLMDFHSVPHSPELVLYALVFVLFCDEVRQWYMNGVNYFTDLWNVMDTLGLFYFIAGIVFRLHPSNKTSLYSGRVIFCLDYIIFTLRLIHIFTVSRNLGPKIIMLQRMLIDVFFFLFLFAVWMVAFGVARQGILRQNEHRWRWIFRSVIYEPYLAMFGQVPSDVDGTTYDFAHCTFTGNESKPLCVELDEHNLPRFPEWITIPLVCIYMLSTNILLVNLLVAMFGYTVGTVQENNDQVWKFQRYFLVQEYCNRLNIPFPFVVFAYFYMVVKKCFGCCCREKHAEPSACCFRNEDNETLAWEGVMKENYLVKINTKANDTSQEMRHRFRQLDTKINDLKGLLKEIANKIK
- method notes: In Vitro Canine TRPM8 Functional Assay (Ca2+ fluorescence, icilin activation)
- Type: cell-based
- measurement setup: HEK293 cells stably expressing canine TRPM8; icilin activation; eight-point dose-response; read-out: IC50
reported endpoint: IC50 (nM)

smiles: CC(=O)c1c(N(Cc2ccc(F)c(F)c2)S(C)(=O)=O)sc2ccccc12
IC50 [nM]: 21

P. COC(=O)c1ccc(S(=O)(=O)N(Cc2ccc(OC(F)(F)F)cc2)c2sc3ccccc3c2C2CCC2)cc1
Q. Cc1c(N(Cc2ccc(F)c(C(F)(F)F)c2)S(=O)(=O)CCC=O)sc2ccccc12
// compare measured IC50, left P , right Q , return larger I would appreciate it if you answered with the label of your choice.
P

###

- target system: UniProtKB Q1A7N1
- method notes: In Vitro Canine TRPM8 Functional Assay (Ca2+ fluorescence, icilin activation)
- Assay type: cell-based
- measurement setup: compound at 0.5 μM; canine TRPM8, icilin activation; read-out: % Inh @ 0.5
reported endpoint: inhibition at 0.5 µM (%)

P. O=S(=O)(c1ccccc1)N(Cc1ccccn1)c1sc2ccccc2c1Br [Compound 168]
Q. O=S(=O)(c1ccccc1)N(C[C@@H](O)CO)c1sc2ccccc2c1Br [Compound 235]
Lowest inhibition at 0.5 µM? choose P or Q I would appreciate it if you answered with the label of your choice.
Q
(Q: 51%, P: 96%)

###

- target system: canine TRPM8 (Canis lupus familiaris, UniProt Q1A7N1)
- method notes: In Vitro Canine TRPM8 Functional Assay (Ca2+ fluorescence, icilin activation)
- Type: cell-based
- measurement setup: compound at 0.2 μM; canine TRPM8, icilin activation; read-out: % Inh @ 0.2
reported endpoint: inhibition at 0.2 µM (%)

Sample records with inhibition at 0.2 µM:
smiles: CC(=O)c1c(N(Cc2ccccc2)S(=O)(=O)c2ccc(Br)cc2)sc2ccccc12
readout number: 100
--
smiles: CCCCN(c1cc2ccccc2s1)S(=O)(=O)c1ccc(C(=O)O)cc1
readout number: 99.3

I. Cc1c(N(Cc2ccc(F)c(C(F)(F)F)c2)S(=O)(=O)c2ccc(-c3nnn[nH]3)cc2)sc2ccccc12
II. CCS(=O)(=O)N(Cc1ccc(F)c(C(F)(F)F)c1)c1sc2ccccc2c1-c1ccc(F)cc1
Lowest inhibition at 0.2 µM? choose I or II I would appreciate it if you answered with the label of your choice.
II
(II: 14%, I: 105%)
